Experiment: Therapeutic index, ratio of IC50 for human HaCaT to MIC for Escherichia coli
Format: toxicity
Settings: HaCaT cells, read-out: TI
Outcome measure: selectivity ratio

Which selectivity ratio reading was recorded for the molecule CCCCCCCCCCCC[S+](C)Cc1cc(C[n+]2ccccc2)cc(C[S+](C)CCCCCCCCCCCC)c1.F[B-](F)(F)F.F[B-](F)(F)F.F[B-](F)(F)F (stereo unspecified) ? 3.6

====

Tested on: Staphylococcus aureus
Assay: Antibacterial activity against Staphylococcus aureus MTCC 96 incubated for 14 to 16 hrs by micro broth dilution method
Type: functional
Details: time 14-16 hrs
Outcome measure: MIC

Examples from the recorded data:
INSERT INTO results (compound, reported_value) VALUES
  ('CCCCCCCCCCCC[S+](C)Cc1cc(C[n+]2ccccc2)cc(C[S+](C)CCCCCCCCCCCC)c1.F[B-](F)(F)F.F[B-](F)(F)F.F[B-](F)(F)F (centres undefined)', '6.3 µM'),
  ('CCCCCCCCCCCC[S+](C)Cc1cc(Cn2cc(CS(=O)(=O)O)nn2)cc(C[S+](C)CCCCCCCCCCCC)c1.F[B-](F)(F)F.F[B-](F)(F)F (centres undefined)', '10 µM'),
  ('CC1(C)S[C@@H]2[C@H](NC(=O)[C@H](N)c3ccc(O)cc3)C(=O)N2[C@H]1C(=O)O [AMOXICILLIN]', '6.8 µM');

Now turn to the next compound.
Quick one: MIC of CCSCc1cc(CSCC)cc(C[n+]2ccccc2)c1 ? > 100 µM
